All values here come from patent US20210206877A1.

Target: BACE1 endogenous to primary cortical neurons from E16.5 CD1 mice (mouse, UniProt P56818 46-501)
Sequence (P56818 46-501): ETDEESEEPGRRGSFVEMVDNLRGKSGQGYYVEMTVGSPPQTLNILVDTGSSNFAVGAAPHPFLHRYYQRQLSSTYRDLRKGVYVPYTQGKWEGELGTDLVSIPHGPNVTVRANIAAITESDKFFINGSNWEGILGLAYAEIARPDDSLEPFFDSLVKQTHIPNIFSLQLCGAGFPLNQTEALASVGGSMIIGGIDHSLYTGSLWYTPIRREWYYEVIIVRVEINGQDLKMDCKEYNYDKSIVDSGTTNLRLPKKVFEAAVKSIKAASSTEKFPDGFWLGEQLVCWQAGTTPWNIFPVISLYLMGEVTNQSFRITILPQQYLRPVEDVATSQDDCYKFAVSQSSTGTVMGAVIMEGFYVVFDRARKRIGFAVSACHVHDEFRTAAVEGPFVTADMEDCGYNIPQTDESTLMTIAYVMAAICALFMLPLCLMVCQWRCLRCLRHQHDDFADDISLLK
Assay: cell-based or functional assay
Listed here are binders together with their documented max % inhibition, Abeta x-40 in mouse cortical neurons.
Quantity kind: max % inhibition, Abeta x-40 in mouse cortical neurons (%)

# Binder, Value reported
records = [
    ("5902 (antibody, V domains shown) VH: QLQLQESGPGLVKPSETLSLTCTVSGGSISSSSYYWGWIRQPPGKGLEWIGSIYRSGSTWYNPSLKSRVTISVDTSKNQFSLKLSSVTAADTAVYYCARVGHGISYFDLWGRGTLVTVSS VL: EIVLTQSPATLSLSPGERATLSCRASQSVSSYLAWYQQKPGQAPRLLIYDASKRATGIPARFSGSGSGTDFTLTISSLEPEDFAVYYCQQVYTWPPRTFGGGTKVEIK", 67),
    ("5894 (antibody, V domains shown) VH: QVQLVQSGAEVKKPGSSVKVSCKASGGTFSGYAISWVRQAPGQGLEWMGNIIPGFGTANYAQKFQGRVTITADESTSTAYMELSSLRSEDTAVYYCARSGGTKYGMLDVWGQGTMVTVSS VL: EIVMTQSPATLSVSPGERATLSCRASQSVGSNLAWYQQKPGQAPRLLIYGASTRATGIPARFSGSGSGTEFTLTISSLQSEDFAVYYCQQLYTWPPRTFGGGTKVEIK", 78),
    ("5884 (antibody, V domains shown) VH: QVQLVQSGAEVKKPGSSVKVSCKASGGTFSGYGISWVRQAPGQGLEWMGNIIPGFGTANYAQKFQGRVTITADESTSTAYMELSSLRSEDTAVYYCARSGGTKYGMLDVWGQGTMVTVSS VL: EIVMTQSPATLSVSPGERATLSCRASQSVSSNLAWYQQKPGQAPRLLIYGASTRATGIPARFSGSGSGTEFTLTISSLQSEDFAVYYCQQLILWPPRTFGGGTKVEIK", 83),
]
